system: interferon (α) (IFN-α); assay: Cytokine induction in human cells: IFN-α secreted by PBMC into culture media (ELISA); assay type: cell-based; conditions: Table 10; human PBMC; lowest tested concentration inducing IFN-α over usually 20 pg/mL; median where more than one experiment; read-out: Minimum Effective Concentration (μM) IFN
property measured: log10 minimal effective concentration (log10 of the value in µM)
Transform log10 | Measure minimal effective concentration | Unit µM

// worked examples, log10 minimal effective concentration included
CCOCc1nc2c(N)nc3cc(-c4ccccc4)ccc3c2n1CCCN1CCCC1=O ... -0.43
CCOCc1nc2c(N)nc3cc(-c4cccc(C)c4)ccc3c2n1CC(C)(C)O ... -1.85
CCCNC(=O)NCCCCn1c(COCC)nc2c(N)nc3cc(-c4cccnc4)ccc3c21 ... -1.40
Cc1cccc(-c2ccc3c(c2)nc(N)c2nc(CO)n(CC(C)(C)O)c23)c1 ... 1.48
CCOCc1nc2c(N)nc3cc(-c4cncc(CO)c4)ccc3c2n1CC(C)(C)O ... -1.85
CCCC(=O)NCCCCn1c(CCC)nc2c(N)nc3cc(-c4cccnc4)ccc3c21 ... -0.92
COCc1nc2c(N)nc3cc(-c4cncc(CO)c4)ccc3c2n1CC(C)(C)O ... -0.92

Which log10 minimal effective concentration value belongs to CC(C)(O)Cn1c(CCO)nc2c(N)nc3cc(-c4ccccc4)ccc3c21 ?
-0.43

---

property measured: melting point

Some entries whose results are on file:
CC(C)[C@H](N)C(=O)OCc1nc2c(N)nc3ccccc3c2n1CC(C)(C)O ... 190 to 192 °C
CC(=O)OCCc1nc2c(N)nc3ccccc3c2n1CC(C)C ... 187 to 189 °C
CC(=O)OCc1nc2c(N)nc3ccccc3c2n1CC(C)(C)O ... 203 to 205 °C

Now, please, on to the next compound.
Suppose we examine the compound CC(C)(O)Cn1c(CO)nc2c(N)nc3cc(OCc4cscn4)ccc3c21 ; what melting point value has been reported?
260 to 262 °C

---

test system: interferon (α) (IFN-α); assay: Cytokine induction in human cells: IFN-α secreted by PBMC into culture media (ELISA); assay type: cell-based; details: Table 12; human PBMC; median where tested in more than one experiment
Everything with Maximal Response IFN lower than 2000 pg/mL is not satisfied; everything else, including exactly 2000 pg/mL, is satisfied.

As a guide, the following entries are already answered.
Cc1nc2c(N)nc3cccnc3c2n1CC(C)C ... not satisfied
CS(=O)(=O)NCCn1c(CO)nc2c(N)nc3cccnc3c21 ... not satisfied
Cc1nc2c(N)nc3cccnc3c2n1CC(C)(C)F ... satisfied
CCOCc1nc2c(N)nc3cccnc3c2n1CC(C)(C)NC(=O)C1CCCCC1 ... not satisfied
CCc1nc2c(N)nc3cccnc3c2n1CC(C)(C)O ... satisfied
CC(C)Cn1c(CO)nc2c(N)nc3cccnc3c21 ... not satisfied
CC(C)(O)Cn1c(CO)nc2c(N)nc3cccnc3c21 ... satisfied
CCOCc1nc2c(N)nc3cccnc3c2n1CC(C)C ... not satisfied

Has CS(=O)(=O)NCCCCn1c(CCO)nc2c(N)nc3cccnc3c21 a recorded Maximal Response IFN greater than or equal to 2000 pg/mL?
satisfied

Entry CC(C)(F)Cn1c(CCO)nc2c(N)nc3cccnc3c21 : is its Maximal Response IFN no less than 2000 pg/mL?
not satisfied
